Listed here: items and their measured Inhibition of binding (%).
Molecular target: T1, human TSH receptor (full length), coated on tubes (human, UniProt P16473 22-764)
T1 construct: TSHR coated tubes as described in WO2004/050708A2; Exact preparation on the tubes is not detailed here; also called thyroid stimulating hormone receptor
Test: competition with 125I-K1-18 IgG on TSHR coated tubes; 0.01 µg/mL, diluted in assay buffer
Give just the numeric value; % need not be written.

BINDER	Inhibition of binding (%)
K1-70 IgG (antibody, V domains shown) VH: EVQLVQSGAEVKKPGQSLKISCKASGYSLTDNWIGWVRQKPGKGLEWMGIIYPGDSDTRYSPSFQGQVTISADKSINTAYLQWSSLKASDTAIYYCVGLDWNYNPLRYWGPGTLVTVSS VL: QSVLTQPPSVSAAPGQKVTISCSGSSSDIGSNYVSWYQQFPGTAPKLLIYDNNKRPSAIPDRFSGSKSGTSATLGITGLQTGDEADYYCGTWDSRLGIAVFGGGTQLTVLG	6.8
K1-18 IgG (antibody, V domains shown) VH: EVQLVQSGAEVKKPGESLKISCKGSGYSFTNYWIGWVRQMPGKGLEWMGIIYPYDSDTRYSPSFEGQVTISADKSIRTAYLHWSSLKASDTAMYYCVRPRDGSYPYDAFDIWGQGTMVTVSS VL: EIVLTQSPGTLSLSPGERATLSCRASQSVSNNYLAWYQQKPGQAPRLLIYGASSRATGIPDRFSGSGSGTDFTLTISRLEPEDFAVYYCQHCGSSLRAFGQGTKVEIKR	14.9
K1-18 Fab (Fab, V domains shown) VH: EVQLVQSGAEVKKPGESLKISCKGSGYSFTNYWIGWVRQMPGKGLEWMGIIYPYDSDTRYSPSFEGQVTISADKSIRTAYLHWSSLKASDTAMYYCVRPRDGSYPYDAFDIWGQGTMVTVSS VL: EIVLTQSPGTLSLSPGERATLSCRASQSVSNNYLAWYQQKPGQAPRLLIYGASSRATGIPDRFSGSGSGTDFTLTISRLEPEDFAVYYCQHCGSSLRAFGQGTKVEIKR	8.8

Could you now look at the following binder, please?
q: Item under review: K1-70 Fab (Fab, V domains shown) VH: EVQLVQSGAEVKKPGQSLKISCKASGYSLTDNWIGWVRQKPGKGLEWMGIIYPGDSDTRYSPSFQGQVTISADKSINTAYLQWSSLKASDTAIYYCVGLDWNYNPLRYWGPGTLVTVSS VL: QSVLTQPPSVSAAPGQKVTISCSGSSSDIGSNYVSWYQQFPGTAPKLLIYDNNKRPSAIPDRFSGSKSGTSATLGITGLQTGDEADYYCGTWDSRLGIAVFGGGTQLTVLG . Reported Inhibition of binding (%)?
a: 25.6
